Tested on: MDA-MB-468 cancer cell line
Experiment: Cell growth assay (WST-8)
Type: cell-based
Settings: Homo sapiens, MDA-MB-468, 96 h; Table 2 prints no column heads; columns and unit as in Table 1; WST-8, 4 days; read-out: Inhibition of cell growth IC50, MDA-MB-468 cancer cell line (pro-drugs, Table 2)
Experimental: The effect of STAT3 compounds on cell growth was evaluated by a WST-8 [2-(2-methoxy-4-nitrophenyl)-3-(4-nitrophenyl)-5-(2,4-disulfophenyl)-2H-tetrazolium, monosodium salt assay (Dojindo Molecular Technologies, Inc). […] At the end of incubation, WST-8 dye (20 μL) was added to each well and incubated for an additional 1-3 h, and then the absorbance was measured in a microplate reader (Molecular Devices) at 450 nm. […]
Property: IC50; scope: individual molecules

{"molecule": "CC(C)(C)C(=O)OCOP(=O)(OCOC(=O)C(C)(C)C)C(F)(F)c1ccc(/C=C/C(=O)N[C@H]2CCCCC3CC[C@@H](C(=O)N[C@@H](CCC(N)=O)C(=O)NCc4ccccc4)N3C2=O)cc1 (stereo partly drawn)", "targetOfAssay": "MDA-MB-468 cancer cell line", "experimentalValue": "> 100 µM"}
{"molecule": "CCCCCCCCCCCCCCCCOP(=O)(OCCCCCCCCCCCCCCCC)C(F)(F)c1ccc2cc(C(=O)N[C@H]3CCCC[C@H]4CC[C@@H](C(=O)NC(CCC(N)=O)C(=O)NCc5ccccc5)N4C3=O)[nH]c2c1 (stereo partly drawn)", "targetOfAssay": "MDA-MB-468 cancer cell line", "experimentalValue": "< 30 µM"}

Moving on to another molecule below.
# query: IC50 of entry CC(C)(C)C(=O)OCOP(=O)(COc1ccc(C[C@H](NC(=O)OCc2ccccc2)C(=O)N[C@H]2CCCCC3CC[C@@H](C(=O)N[C@@H](CCC(N)=O)C(=O)NCc4ccccc4)N3C2=O)cc1)OCOC(=O)C(C)(C)C (stereo partly drawn)
> 50 µM

* * *

molecular target: STAT3 protein (Homo sapiens, UniProt P40763); construct: human STAT3 protein (residues 122-722) fused to His-tag; His-tag; assay: In vitro competitive STAT3 binding assay (fluorescence polarization)
Sequence (P40763 122-722): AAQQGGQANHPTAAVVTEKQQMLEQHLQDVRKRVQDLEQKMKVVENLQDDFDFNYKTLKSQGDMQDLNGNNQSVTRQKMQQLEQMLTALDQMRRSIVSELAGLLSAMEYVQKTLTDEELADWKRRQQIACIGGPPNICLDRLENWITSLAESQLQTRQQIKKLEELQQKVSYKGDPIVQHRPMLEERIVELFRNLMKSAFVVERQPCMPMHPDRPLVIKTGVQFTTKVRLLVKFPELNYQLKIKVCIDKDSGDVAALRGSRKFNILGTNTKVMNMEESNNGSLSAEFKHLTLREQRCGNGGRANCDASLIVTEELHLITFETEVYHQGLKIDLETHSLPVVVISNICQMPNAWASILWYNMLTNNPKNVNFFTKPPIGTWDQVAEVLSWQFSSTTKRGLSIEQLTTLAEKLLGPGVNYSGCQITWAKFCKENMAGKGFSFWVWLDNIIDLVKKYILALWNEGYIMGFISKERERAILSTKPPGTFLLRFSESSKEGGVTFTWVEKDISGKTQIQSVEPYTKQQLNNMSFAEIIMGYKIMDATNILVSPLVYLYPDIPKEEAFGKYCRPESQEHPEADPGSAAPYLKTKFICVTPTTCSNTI
Property: IC50; scope: individual compounds

Recorded results for 2 compounds are shown here.
{"compound": "NC(=O)CC[C@H](NC(=O)[C@@H]1CCC2CCNC[C@H](NC(=O)[C@@H](N)Cc3ccc(OP(=O)(O)O)cc3)C(=O)N21)C(=O)NCc1ccccc1 (stereo partly drawn)", "experimentalValue": "< 100 µM"}
{"compound": "O=C(CC[C@H](NC(=O)[C@@H]1CCC2CCCC[C@H](NC(=O)[C@H](Cc3ccc(OP(=O)(O)O)cc3)NC(=O)OCc3ccccc3)C(=O)N21)C(=O)NCc1ccccc1)NC(c1ccccc1)(c1ccccc1)c1ccccc1 (stereo partly drawn)", "experimentalValue": "< 20 µM"}

# query: IC50 of entry NC(=O)CC[C@H](NC(=O)[C@@H]1CCC2CCCC[C@H](NC(=O)/C=C/c3ccc(OP(=O)(O)O)cc3)C(=O)N21)C(=O)NCc1ccccc1 (stereo partly drawn) [Example 56]
< 1 µM

* * *

tested on: MDA-MB-468 cancer cell line; experiment: Cell growth assay (WST-8); format: cell-based; details: Homo sapiens, MDA-MB-468, 96 h; WST-8, 4 days; read-out: Inhibition of cell growth IC50, MDA-MB-468 cancer cell line
Property: IC50; scope: individual molecules

Recorded results for 6 molecules are shown here.
{"molecule": "N[C@@H](Cc1ccc(CP(=O)(O)O)cc1)C(=O)N[C@H]1CCCC[C@H]2CC[C@@H](C(=O)N[C@@H](Cc3c[nH]cn3)C(=O)NCc3ccccc3)N2C1=O", "IC50": "> 100 µM"}
{"molecule": "CCCCCCCCCCCCCCCCN1CCN(CCC(=O)N[C@@H](Cc2ccc(OP(=O)(O)O)cc2)C(=O)N[C@H]2CCCCC3CC[C@@H](C(=O)NCCCC(O)CO)N3C2=O)CC1 (some centres unmarked)", "IC50": "< 20 µM"}
{"molecule": "NC(=O)CC[C@H](NC(=O)[C@@H]1CCC2CCCC[C@H](NC(=O)c3cc4cc(CP(=O)(O)O)ccc4[nH]3)C(=O)N21)C(=O)NCc1ccccc1 (some centres unmarked)", "IC50": "> 100 µM"}
{"molecule": "CC(=O)NCCC[C@H](NC(=O)[C@@H]1CCC2CCCC[C@H](NC(=O)[C@H](Cc3ccc(OC(C(=O)O)C(=O)O)cc3)N(C)C)C(=O)N21)C(=O)NCc1ccccc1 (some centres unmarked)", "IC50": "> 100 µM"}
{"molecule": "CN(C)[C@@H](Cc1ccc(OP(=O)(O)O)cc1)C(=O)N[C@H]1CCCCC2CC[C@@H](C(=O)N[C@@H](CNC(=N)N)C(=O)NCc3ccccc3)N2C1=O (some centres unmarked)", "IC50": "> 100 µM"}
{"molecule": "CN[C@@H](Cc1ccc(OC(C(=O)O)C(=O)O)cc1)C(=O)N[C@H]1CCCCC2CC[C@@H](C(=O)N[C@@H](Cc3c[nH]cn3)C(=O)NCc3ccccc3)N2C1=O (some centres unmarked)", "IC50": "> 100 µM"}

# query: IC50 of entry CCCCCCCCCCCCCCCCN1CCN(CCC(=O)N[C@@H](Cc2ccc(OP(=O)(O)O)cc2)C(=O)N[C@H]2CCCCC3CC[C@@H](C(=O)NCCCCN(C)C)N3C2=O)CC1 (some centres unmarked)
< 50 µM

Now give it for CCCCCCCCCCCCCCCC(=O)N[C@@H](Cc1ccc(OP(=O)(O)O)cc1)C(=O)NC1CCCC[C@H]2CC[C@@H](C(=O)N[C@@H](Cc3c[nH]cn3)C(=O)NCc3ccccc3)N2C1=O (some centres unmarked) too.
< 60 µM

Now give it for CCCCCCCCCCCCCCCCN1CCN(CCC(=O)N[C@@H](Cc2ccc(OP(=O)(O)O)cc2)C(=O)N[C@H]2CCCCC3CC[C@@H](C(=O)N[C@H](CO)Cc4c[nH]cn4)N3C2=O)CC1 (some centres unmarked) too.
< 20 µM

Now give it for CCCCCCCCCCCCCCCCCCCCNC(=O)[C@H](CCC(N)=O)NC(=O)[C@@H]1CCC2CCCC[C@H](NC(=O)[C@H](Cc3ccc(OP(=O)(O)O)cc3)NC)C(=O)N21 (some centres unmarked) too.
< 30 µM

Now give it for CN(C)[C@@H](Cc1ccc(OCP(=O)(O)O)cc1)C(=O)NC1CCCC[C@H]2CC[C@@H](C(=O)N[C@@H](Cc3c[nH]cn3)C(=O)NCCc3ccccc3)N2C1=O (stereo in doubt) too.
> 100 µM

* * *

System: MDA-MB-468 cancer cell line
Test: Cell growth assay (WST-8)
Type: cell-based
Settings: Homo sapiens, MDA-MB-468, 96 h; WST-8, 4 days; read-out: Inhibition of cell growth IC50, MDA-MB-468 cancer cell line
Experimental: The effect of STAT3 compounds on cell growth was evaluated by a WST-8 [2-(2-methoxy-4-nitrophenyl)-3-(4-nitrophenyl)-5-(2,4-disulfophenyl)-2H-tetrazolium, monosodium salt assay (Dojindo Molecular Technologies, Inc). […] At the end of incubation, WST-8 dye (20 μL) was added to each well and incubated for an additional 1-3 h, and then the absorbance was measured in a microplate reader (Molecular Devices) at 450 nm. […]
pIC50: −log10 of the molar value.
propertyName: pIC50

Recorded results for 10 compounds are shown here.
{"compound": "CP(=O)(O)CCCCCC(=O)N[C@H]1CCCCC2CC[C@@H](C(=O)N[C@@H](CCC(N)=O)C(=O)NCc3ccccc3)N2C1=O (some centres unmarked)", "experimentalValue": "< 4.00"}
{"compound": "CN[C@@H](Cc1ccc(OP(=O)(O)O)cc1)C(=O)N[C@H]1CCCCC2CC[C@@H](C(=O)N[C@@H](Cc3c[nH]cn3)C(=O)NCc3ccccc3)N2C1=O (some centres unmarked)", "experimentalValue": "< 4.00"}
{"compound": "CCOC(=O)C(Oc1ccc(C[C@@H](C(=O)N[C@H]2CCCCC3CC[C@@H](C(=O)N[C@@H](CCCNC(C)=O)C(=O)NCc4ccccc4)N3C2=O)N(C)C)cc1)C(=O)OCC (some centres unmarked)", "experimentalValue": "< 4.00"}
{"compound": "CCCCCCCCCCCCCCCCN1CCN(CCC(=O)N[C@@H](Cc2ccc(OP(=O)(O)O)cc2)C(=O)N[C@H]2CCCCC3CC[C@@H](C(=O)NCCc4nnn[nH]4)N3C2=O)CC1 (some centres unmarked)", "experimentalValue": "> 4.30"}
{"compound": "NC(=O)CC[C@H](NC(=O)[C@@H]1CC[C@@H]2CCCC[C@H](NC(=O)CCc3ccc(CCC(=O)O)cc3)C(=O)N21)C(=O)NCc1ccccc1", "experimentalValue": "< 4.00"}
{"compound": "CCCCCCCCCCCCCCCCNC(=O)C(CCC(N)=O)NC(=O)[C@@H]1CCC2CCCC[C@H](NC(=O)c3cc4cc(C(F)(F)P(=O)(O)O)ccc4[nH]3)C(=O)N21 (some centres unmarked)", "experimentalValue": "< 4.00"}
{"compound": "O=C(N[C@@H](Cc1ccc(OP(=O)(O)O)cc1)C(=O)N[C@H]1CCCC[C@H]2CC[C@@H](C(=O)N[C@@H](Cc3c[nH]cn3)C(=O)NCc3ccccc3)N2C1=O)OCc1ccccc1", "experimentalValue": "< 4.00"}
{"compound": "CCCCCCCCCCCCCCCCNC(=O)[C@H](CCC(N)=O)NC(=O)[C@@H]1CCC2CCCC[C@H](NC(=O)[C@@H](N)Cc3ccc(OP(=O)(O)O)cc3)C(=O)N21 (some centres unmarked)", "experimentalValue": "> 4.30"}
{"compound": "CCCCCCCCCCCCNC(=O)[C@H](CCC(N)=O)NC(=O)[C@@H]1CCC2CCCC[C@H](NC(=O)[C@H](Cc3ccc(OP(=O)(O)O)cc3)NC)C(=O)N21 (some centres unmarked)", "experimentalValue": "> 4.70"}
{"compound": "CCCCCCCCCCCCCCCCN1CCN(CCC(=O)N[C@@H](Cc2ccc(OP(=O)(O)O)cc2)C(=O)N[C@H]2CCCCC3CC[C@@H](C(=O)NCCc4cn[nH]c4)N3C2=O)CC1 (some centres unmarked)", "experimentalValue": "> 4.70"}

Moving on to another compound below.
# query: pIC50 of entry NC(=O)CC[C@H](NC(=O)[C@@H]1CCC2CCCC[C@H](NC(=O)[C@H](Cc3ccc(OP(=O)(O)O)cc3)NC(=O)OCc3ccccc3)C(=O)N21)C(=O)NCc1ccccc1 (stereo in doubt)
< 4.00
